tested on: Norepinephrine transporter (Rattus norvegicus)
Sequence (Q9WTR4 whole entry): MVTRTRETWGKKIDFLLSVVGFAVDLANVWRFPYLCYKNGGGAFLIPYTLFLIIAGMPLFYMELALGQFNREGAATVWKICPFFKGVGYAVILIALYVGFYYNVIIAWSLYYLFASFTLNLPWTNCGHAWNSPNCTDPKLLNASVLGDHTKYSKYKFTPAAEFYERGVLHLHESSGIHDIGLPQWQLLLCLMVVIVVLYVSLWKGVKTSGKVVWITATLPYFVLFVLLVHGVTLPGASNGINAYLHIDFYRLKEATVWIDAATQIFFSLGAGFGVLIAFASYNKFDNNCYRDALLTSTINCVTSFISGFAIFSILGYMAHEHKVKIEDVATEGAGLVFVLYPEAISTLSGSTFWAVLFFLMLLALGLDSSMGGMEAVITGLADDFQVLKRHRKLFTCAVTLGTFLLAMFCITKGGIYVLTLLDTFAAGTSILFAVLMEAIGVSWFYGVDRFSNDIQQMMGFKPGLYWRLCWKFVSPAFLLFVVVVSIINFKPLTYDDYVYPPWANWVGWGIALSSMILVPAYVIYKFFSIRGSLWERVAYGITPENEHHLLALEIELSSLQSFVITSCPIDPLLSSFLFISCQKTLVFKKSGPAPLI
pKi: −log10 of the molar value.
Kindly state pKi for each of the entries shown.

Challenge: For the molecule "COC(=O)[C@@H]1CN(C)CC[C@@H]1c1ccc(C=O)cc1" , what pKi is on record?
Response given: < 4.52

Challenge: For the molecule "COC(=O)[C@@H]1CN(C)CC[C@@H]1c1ccc(-c2ccco2)cc1" , what pKi is on record?
Response given: < 4.30

Challenge: For the molecule "COC(=O)[C@@H]1CN(C)CC[C@@H]1c1ccc(-c2nccs2)cc1" , what pKi is on record?
Response given: < 4.30

Challenge: For the molecule "COC(=O)[C@@H]1CN(C)CC[C@@H]1c1ccc(-c2ccsc2)cc1" , what pKi is on record?
Response given: < 5.00

Challenge: For the molecule "COC(=O)[C@@H]1CN(C)CC[C@@H]1c1ccc(/C=C\I)cc1" , what pKi is on record?
Response given: < 4.52

Challenge: For the molecule "COC(=O)[C@H]1[C@@H](c2ccc(I)cc2)C[C@@H]2CC[C@H]1N2C" , what pKi is on record?
Response given: 8.55

Challenge: For the molecule "COC(=O)[C@@H]1CN(C)CC[C@@H]1c1ccc(-c2cccs2)cc1" , what pKi is on record?
Response given: < 4.30

Challenge: For the molecule COC(=O)[C@@H]1CN(C)CC[C@@H]1c1ccc(-c2nccs2)cc1 (racemic) , what pKi is on record?
Response given: < 4.70

* * *

tested on: Monoamine transporters; Norepinephrine & serotonin (Rattus norvegicus) (UniProt P31652+Q9WTR4)
assay comment: Selectivity for SERT over NET
Assay type: protein assay
Field 'label' (enum: yes / no). Set to yes when Ratio Ki is strictly under 6; else no.

Challenge: Strictly below 6 in Ratio Ki? "COC(=O)[C@@H]1CN(C)CC[C@@H]1c1ccc(/C=C\I)cc1"
Response given: no

Challenge: Strictly below 6 in Ratio Ki? "COC(=O)[C@@H]1CN(C)CC[C@@H]1c1ccc(-c2nccs2)cc1"
Response given: yes

Challenge: Strictly below 6 in Ratio Ki? "COC(=O)[C@@H]1CN(C)CC[C@@H]1c1ccc(-c2ccco2)cc1"
Response given: no

Challenge: Strictly below 6 in Ratio Ki? "COC(=O)[C@@H]1CN(C)CC[C@@H]1c1ccc(-c2cccs2)cc1"
Response given: no

Challenge: Strictly below 6 in Ratio Ki? "COC(=O)[C@@H]1CN(C)CC[C@@H]1c1ccc(I)cc1"
Response given: no

Challenge: Strictly below 6 in Ratio Ki? "COC(=O)[C@@H]1CN(C)CC[C@@H]1c1ccc(-c2ccsc2)cc1"
Response given: no

Challenge: Strictly below 6 in Ratio Ki? "COC(=O)[C@@H]1CN(C)CC[C@@H]1c1ccc(C=O)cc1"
Response given: no

Challenge: Strictly below 6 in Ratio Ki? COC(=O)[C@@H]1CN(C)CC[C@@H]1c1ccc(-c2nccs2)cc1 (racemic)
Response given: yes

* * *

quantity: pKi
The value called pKi is obtained by taking minus log10 of the concentration in mol/L.

Challenge: I'm curious: which pKi was measured for "COC(=O)[C@@H]1CN(C)CC[C@@H]1c1ccc(I)cc1" tested on Sodium-dependent dopamine transporter (Rattus norvegicus, UniProt P23977)?
Response given: 6.71

Challenge: I'm curious: which pKi was measured for "COC(=O)[C@@H]1CN(C)CC[C@@H]1c1ccc(-c2ccco2)cc1" tested on Sodium-dependent dopamine transporter (Rattus norvegicus, UniProt P23977)?
Response given: 6.69

Challenge: I'm curious: which pKi was measured for "COC(=O)[C@@H]1CN(C)CC[C@@H]1c1ccc(-c2ccsc2)cc1" tested on Sodium-dependent dopamine transporter (Rattus norvegicus, UniProt P23977)?
Response given: 6.22

Challenge: I'm curious: which pKi was measured for "COC(=O)[C@@H]1CN(C)CC[C@@H]1c1ccc(/C=C\I)cc1" tested on Sodium-dependent dopamine transporter (Rattus norvegicus, UniProt P23977)?
Response given: 6.91

Challenge: I'm curious: which pKi was measured for "COC(=O)[C@H]1[C@@H](c2ccc(I)cc2)C[C@@H]2CC[C@H]1N2C" tested on Sodium-dependent dopamine transporter (Rattus norvegicus, UniProt P23977)?
Response given: 9.02

Taken from ChEMBL document CHEMBL1146896.
